experimentalTarget: human α2A (CHO-C10) receptor (Homo sapiens, UniProt P08913)
Construct: expressed in transfected cells; host or cells: CHO (CHO-C10)
Sequence (P08913 1-465): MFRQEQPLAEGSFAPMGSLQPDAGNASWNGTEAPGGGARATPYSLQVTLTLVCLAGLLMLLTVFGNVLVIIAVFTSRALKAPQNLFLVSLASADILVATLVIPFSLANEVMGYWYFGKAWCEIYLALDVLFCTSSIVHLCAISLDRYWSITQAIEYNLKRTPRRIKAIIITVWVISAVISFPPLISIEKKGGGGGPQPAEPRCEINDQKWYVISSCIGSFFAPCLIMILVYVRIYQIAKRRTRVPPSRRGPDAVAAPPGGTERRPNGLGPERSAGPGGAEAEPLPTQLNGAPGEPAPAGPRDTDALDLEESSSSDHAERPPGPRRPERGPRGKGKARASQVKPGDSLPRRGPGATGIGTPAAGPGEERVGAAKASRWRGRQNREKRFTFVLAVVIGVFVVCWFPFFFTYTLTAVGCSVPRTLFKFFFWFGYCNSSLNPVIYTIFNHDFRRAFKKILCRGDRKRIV
assayProcedure: Radioligand binding, [3H]rauwolscine, CHO-C10 cell membranes
runParameters: CHO-C10, 22° C., 30 minutes, read-out: Ki (nM) α2A (CHO-C10)
metricName: Ki (nM)

[I] CC1(C)C2CCC1(C)C(NC1=NCCO1)C2 (stereo not drawn)
[II] C1COC(NC2CC3CCC2C3)=N1 (stereo not drawn)
Query string: Higher Ki between I and II ? Kindly state the label of the option you pick.
Result string: I
